assay: Peptide translocation across Caco-2 monolayers (Transwell, apical-to-basolateral); type: in vitro ADME; details: human, Caco-2; apical-to-basolateral; read-out: apparent permeability coefficient
readout-type: Papp A→B at 0.2 μM (×10⁻⁶ cm/s)
Field format: number, assumed ×10⁻⁶ cm/s, no unit text.

// lookup Papp A→B at 0.2 μM for Cc1cc(O)cc(C)c1C[C@H](N)C(=O)N[C@H](CCCNC(=N)N)C(=O)N[C@@H](Cc1ccccc1)C(=O)N[C@@H](CCCCN)C(N)=O [[Dmt^1]DALDA, 2′,6-Dmt-D-Arg-Phe-Lys-NH2]
12.4
